Entry source: patent US8987502B2

- Test system: Jurkat
- test_protocol: MTT leukemia cell proliferation inhibition, Jurkat
- Format: cell-based
- condition_description: Homo sapiens, 72 h, MTT
measurement_name: IC50 (µg/mL)

given_smiles: CC1(C)CC[C@]2(NC(=O)c3cccnc3Cl)CC[C@]3(C)C(=CC[C@@H]4[C@@]5(C)CC[C@H](O)C(C)(C)[C@@H]5CC[C@]43C)[C@@H]2C1
observed_value: 15.3
//
given_smiles: CC1(C)CC[C@]2(NC(=O)c3ccco3)CC[C@]3(C)C(=CC[C@@H]4[C@@]5(C)CC[C@H](O)C(C)(C)[C@@H]5CC[C@]43C)[C@@H]2C1
observed_value: 14.5
//
given_smiles: CC1(C)CC[C@]2(NC(=O)C3CC3)CC[C@]3(C)C(=CC[C@@H]4[C@@]5(C)CC[C@H](O)C(C)(C)[C@@H]5CC[C@]43C)[C@@H]2C1
observed_value: 14.3

----------
- Test system: SK-OV-3
- test_protocol: MTT solid tumor cell proliferation inhibition, SK-OV-3
- Type: cell-based, human
- condition_description: Homo sapiens; SK-OV-3, 16 μg/mL compound, 72 h; read-out: IR (inhibition rate)
measurement_name: inhibition at 16 µg/mL (%)
Reply with just the number (in %).

given_smiles: CC1(C)CC[C@]2(NC(=O)c3ccccc3)CC[C@]3(C)C(=CC[C@@H]4[C@@]5(C)CC[C@H](O)C(C)(C)[C@@H]5CC[C@]43C)[C@@H]2C1
value_units: %
inhibition at 16 µg/mL: 39.7

input: Which measured inhibition at 16 µg/mL value corresponds to CC1(C)CC[C@]2(NC(=O)c3cccnc3Cl)CC[C@]3(C)C(=CC[C@@H]4[C@@]5(C)CC[C@H](O)C(C)(C)[C@@H]5CC[C@]43C)[C@@H]2C1 ?
output: 97

input: Which measured inhibition at 16 µg/mL value corresponds to CC1(C)CC[C@]2(NC(=O)c3ccco3)CC[C@]3(C)C(=CC[C@@H]4[C@@]5(C)CC[C@H](O)C(C)(C)[C@@H]5CC[C@]43C)[C@@H]2C1 ?
output: 43.2

----------
Each entry below carries its reported inhibition at 16 µg/mL.
- Tested on: Becap37
- test_protocol: MTT solid tumor cell proliferation inhibition, Becap37
- Type: cell-based
- condition_description: Homo sapiens; Becap37, 16 μg/mL compound, 72 h; read-out: IR (inhibition rate)
Reply with just the number (in %).

given_smiles: CC1(C)CC[C@]2(NC(=O)c3ccco3)CC[C@]3(C)C(=CC[C@@H]4[C@@]5(C)CC[C@H](O)C(C)(C)[C@@H]5CC[C@]43C)[C@@H]2C1
inhibition at 16 µg/mL (%): 35.1

input: Which measured inhibition at 16 µg/mL value corresponds to CC1(C)CC[C@]2(C(=O)O)CC[C@]3(C)C(=CC[C@@H]4[C@@]5(C)CC[C@H](O)C(C)(C)[C@@H]5CC[C@]43C)[C@@H]2C1 ?
output: 23.4

input: Which measured inhibition at 16 µg/mL value corresponds to CC1(C)CC[C@]2(NC(=O)C3CC3)CC[C@]3(C)C(=CC[C@@H]4[C@@]5(C)CC[C@H](O)C(C)(C)[C@@H]5CC[C@]43C)[C@@H]2C1 ?
output: 41.3

input: Which measured inhibition at 16 µg/mL value corresponds to CC1(C)CC[C@]2(NC(=O)c3ccccc3)CC[C@]3(C)C(=CC[C@@H]4[C@@]5(C)CC[C@H](O)C(C)(C)[C@@H]5CC[C@]43C)[C@@H]2C1 ?
output: 18.1

input: Which measured inhibition at 16 µg/mL value corresponds to CC1(C)CC[C@]2(NC(=O)c3cccs3)CC[C@]3(C)C(=CC[C@@H]4[C@@]5(C)CC[C@H](O)C(C)(C)[C@@H]5CC[C@]43C)[C@@H]2C1 ?
output: 28.6

input: Which measured inhibition at 16 µg/mL value corresponds to CC1(C)CC[C@]2(NC(=O)c3cccnc3Cl)CC[C@]3(C)C(=CC[C@@H]4[C@@]5(C)CC[C@H](O)C(C)(C)[C@@H]5CC[C@]43C)[C@@H]2C1 ?
output: 39.3

input: Which measured inhibition at 16 µg/mL value corresponds to COc1cccc(C(=O)N[C@]23CCC(C)(C)C[C@H]2C2=CC[C@@H]4[C@@]5(C)CC[C@H](O)C(C)(C)[C@@H]5CC[C@@]4(C)[C@]2(C)CC3)c1 ?
output: 4.6

----------
- System: Kasumi-1
- test_protocol: MTT leukemia cell proliferation inhibition, Kasumi-1
- Type: cell-based
- condition_description: Homo sapiens; Kasumi-1, 72 h, MTT
measurement_name: IC50

Answered cases to consult:
given_smiles: CC1(C)CC[C@]2(C(=O)O)CC[C@]3(C)C(=CC[C@@H]4[C@@]5(C)CC[C@H](O)C(C)(C)[C@@H]5CC[C@]43C)[C@@H]2C1
IC50: > 16 µg/mL

given_smiles: CC1(C)CC[C@]2(NC(=O)C3CC3)CC[C@]3(C)C(=CC[C@@H]4[C@@]5(C)CC[C@H](O)C(C)(C)[C@@H]5CC[C@]43C)[C@@H]2C1
IC50: > 16 µg/mL

given_smiles: COc1cccc(C(=O)N[C@]23CCC(C)(C)C[C@H]2C2=CC[C@@H]4[C@@]5(C)CC[C@H](O)C(C)(C)[C@@H]5CC[C@@]4(C)[C@]2(C)CC3)c1
IC50: > 16 µg/mL

given_smiles: CC1(C)CC[C@]2(NC(=O)c3ccccc3)CC[C@]3(C)C(=CC[C@@H]4[C@@]5(C)CC[C@H](O)C(C)(C)[C@@H]5CC[C@]43C)[C@@H]2C1
IC50: 15.4 µg/mL

given_smiles: CC1(C)CC[C@]2(NC(=O)c3cccnc3Cl)CC[C@]3(C)C(=CC[C@@H]4[C@@]5(C)CC[C@H](O)C(C)(C)[C@@H]5CC[C@]43C)[C@@H]2C1
IC50: > 16 µg/mL

given_smiles: CC1(C)CC[C@]2(NC(=O)c3ccco3)CC[C@]3(C)C(=CC[C@@H]4[C@@]5(C)CC[C@H](O)C(C)(C)[C@@H]5CC[C@]43C)[C@@H]2C1
IC50: 13.1 µg/mL

Would you kindly look at the next entry?
input: Which measured IC50 value corresponds to CC1(C)CC[C@]2(NC(=O)c3cccs3)CC[C@]3(C)C(=CC[C@@H]4[C@@]5(C)CC[C@H](O)C(C)(C)[C@@H]5CC[C@]43C)[C@@H]2C1 ?
output: > 16 µg/mL

----------
- Tested on: MG 63
- test_protocol: MTT solid tumor cell proliferation inhibition, MG 63
- Type: cell-based, human
- condition_description: Homo sapiens; MG 63, 72 h, MTT
measurement_name: IC50 (µg/mL)

molecule: CC1(C)CC[C@]2(NC(=O)C3CC3)CC[C@]3(C)C(=CC[C@@H]4[C@@]5(C)CC[C@H](O)C(C)(C)[C@@H]5CC[C@]43C)[C@@H]2C1 [BS-OA-097]
value_units: µg/mL
observed_value: 13.2
--
molecule: CC1(C)CC[C@]2(NC(=O)c3ccco3)CC[C@]3(C)C(=CC[C@@H]4[C@@]5(C)CC[C@H](O)C(C)(C)[C@@H]5CC[C@]43C)[C@@H]2C1 [BS-OA-099]
value_units: µg/mL
observed_value: 15.1
--
molecule: CC1(C)CC[C@]2(NC(=O)c3cccnc3Cl)CC[C@]3(C)C(=CC[C@@H]4[C@@]5(C)CC[C@H](O)C(C)(C)[C@@H]5CC[C@]43C)[C@@H]2C1 [BS-OA-096]
value_units: µg/mL
observed_value: 13.8

----------
- System: NB4
- test_protocol: MTT leukemia cell proliferation inhibition, NB4
- Type: cell-based
- condition_description: Homo sapiens, NB-4; NB4, 72 h, MTT
measurement_name: IC50 (µg/mL)

given_smiles: CC1(C)CC[C@]2(NC(=O)c3ccco3)CC[C@]3(C)C(=CC[C@@H]4[C@@]5(C)CC[C@H](O)C(C)(C)[C@@H]5CC[C@]43C)[C@@H]2C1
value_units: µg/mL
observed_value: 9.17
--
given_smiles: CC1(C)CC[C@]2(NC(=O)c3ccccc3)CC[C@]3(C)C(=CC[C@@H]4[C@@]5(C)CC[C@H](O)C(C)(C)[C@@H]5CC[C@]43C)[C@@H]2C1
value_units: µg/mL
observed_value: 8.2

(1) CC1(C)CC[C@]2(NC(=O)C3CC3)CC[C@]3(C)C(=CC[C@@H]4[C@@]5(C)CC[C@H](O)C(C)(C)[C@@H]5CC[C@]43C)[C@@H]2C1
(2) CC1(C)CC[C@]2(NC(=O)c3cccnc3Cl)CC[C@]3(C)C(=CC[C@@H]4[C@@]5(C)CC[C@H](O)C(C)(C)[C@@H]5CC[C@]43C)[C@@H]2C1
(3) COc1cccc(C(=O)N[C@]23CCC(C)(C)C[C@H]2C2=CC[C@@H]4[C@@]5(C)CC[C@H](O)C(C)(C)[C@@H]5CC[C@@]4(C)[C@]2(C)CC3)c1
input: Rank items: key IC50, increasing. Answer by writing out the labels in the requested order.
output: 1, 2, 3
